Source of measurements: ChEMBL document CHEMBL1201862

test system: DU-145; test: NCI tumour cell line growth inhibition, 48 h
Activity calls are given as the source filed them. Cut-off read from the data, not from the text of the source: active = GI50 up to about 1.1 µM and inactive = higher.
Please provide measured GI50 for the entries that follow.

Lookup: Lab note: need GI50 for C/C=C\C(CC(=O)NCCC1CN(S(=O)(=O)C(F)(F)F)c2ccccc21)CC(=O)OC (configuration not stated) on DU-145, anyone have it?
Found: > 100 µM (inactive)

Lookup: Lab note: need GI50 for CCN(CCC#N)C(=O)Nc1ccccc1 on DU-145, anyone have it?
Found: > 100 µM (inactive)

Lookup: Lab note: need GI50 for O=[N+]([O-])C(Cl)=C/C(=C(\Cl)SCc1ccccc1)[N+](=O)[O-] on DU-145, anyone have it?
Found: 31.4 µM (inactive)

Lookup: Lab note: need GI50 for Cc1ccc(-n2cc([Si](C)(C)C)nn2)s1 on DU-145, anyone have it?
Found: > 100 µM (inactive)

Lookup: Lab note: need GI50 for Cc1c2ccc3ccccc3c2c[n+]2ccccc12 on DU-145, anyone have it?
Found: 11.4 µM (inactive)

Lookup: Lab note: need GI50 for Cc1c(-c2ccccc2)c(C#N)c2nnn(C)c(=O)n12 on DU-145, anyone have it?
Found: > 100 µM (inactive)

Lookup: Lab note: need GI50 for O=C1NC(N2CCOCC2)=N/C1=C\c1ccccc1 on DU-145, anyone have it?
Found: > 100 µM (inactive)

Lookup: Lab note: need GI50 for OC1CCCC1C(O)(C(F)(F)F)C(F)(F)F (configuration not stated) on DU-145, anyone have it?
Found: > 100 µM (inactive)

Lookup: Lab note: need GI50 for Nc1ccccc1CCCC(=O)O on DU-145, anyone have it?
Found: > 100 µM (inactive)

Lookup: Lab note: need GI50 for Cc1nc(=O)[nH]c2c1C(=O)N(C(C)C)C(NC(C)C)S2 (configuration not stated) on DU-145, anyone have it?
Found: > 100 µM (inactive)

Lookup: Lab note: need GI50 for COC1=CC(=O)C2=C(C1=O)[C@H]1CC[C@]3(C)[C@@H](O)CC[C@H]3[C@@H]1CC2 on DU-145, anyone have it?
Found: 17.2 µM (inactive)

Lookup: Lab note: need GI50 for Cc1ccc(S(=O)(=O)O)cc1.c1cc2c(c(NC3=NCCN3)c1)CCCC2 on DU-145, anyone have it?
Found: > 100 µM (inactive)

* * *

system: HOP-62; experiment: NCI tumour cell line growth inhibition, 48 h
Calls of active or inactive are those of the source. Cut-off read from the data, not from the text of the source: active = GI50 up to about 1.1 µM and inactive = higher.
endpoint: GI50

Lookup: Lab note: need GI50 for CC(=O)OC(CCC1(C)OC1COc1ccc(CCNC(=O)C=C(C)C)cc1)C(C)(C)OC(C)=O (centres undefined) on HOP-62, anyone have it?
Found: 20 µM (inactive)

Lookup: Lab note: need GI50 for O=C(O)CCSC1=NCCN1 on HOP-62, anyone have it?
Found: > 100 µM (inactive)

Lookup: Lab note: need GI50 for COc1cc(C2c3cc(O)c(OC)cc3C3OCC2C3CO)ccc1O (centres undefined) on HOP-62, anyone have it?
Found: > 100 µM (inactive)

Lookup: Lab note: need GI50 for O=c1[nH]c(=O)n(C2OC(CO)C(O)C2O)cc1/N=N/NCc1ccccc1 (centres undefined) on HOP-62, anyone have it?
Found: > 100 µM (inactive)

Lookup: Lab note: need GI50 for CCC(/C=C/c1ccccc1)=N\NC(=S)N/N=C(/C=C/c1ccccc1)CC on HOP-62, anyone have it?
Found: > 100 µM (inactive)

Lookup: Lab note: need GI50 for O=C(O)c1ccccc1C(=O)Nn1cnnc1 on HOP-62, anyone have it?
Found: > 100 µM (inactive)

Lookup: Lab note: need GI50 for Cc1cc(=O)oc2c(C3=NN(C=O)C(c4ccccc4)C3)c(O)ccc12 (centres undefined) on HOP-62, anyone have it?
Found: 37.1 µM (inactive)

Lookup: Lab note: need GI50 for COc1ccc2c(c1)[nH]c1c(/C=C/c3ccccc3)nccc12 on HOP-62, anyone have it?
Found: 15.7 µM (inactive)

Lookup: Lab note: need GI50 for CCOC(=O)CCC(C(=O)OCC)n1nnc2ccc(Nc3c(C)[n+]([O-])c4cc(F)c(OCC)cc4[n+]3[O-])cc21 (centres undefined) on HOP-62, anyone have it?
Found: > 100 µM (inactive)
